test system: Echinochloa crus-galli; assay: Inhibition of stem growth of Echinochloa crus-galli at 100 mg/L; assay type: functional
Each record here notes measured inhibition at 100 µg/mL.

| Compound | U | inhibition at 100 µg/mL |
| --- | --- | --- |
| C=CCSc1nnc(Cn2nnn(-c3ccc(Cl)cc3)c2=O)o1 | % | 0 |
| C=CCn1nnn(-c2ccccc2Cl)c1=O | % | 0 |
| CCOC(=O)C(C)n1nnn(-c2ccc(Cl)cc2)c1=O (centres undefined) | % | 0 |
| COc1cc(-n2nnn(C)c2=O)c(Cl)cc1Cl | % | 30 |
| CSc1nnc(Cn2nnn(-c3ccc(Cl)cc3)c2=O)s1 | % | 0 |
| O=c1c(Cn2nnn(-c3ccc(Cl)cc3)c2=O)coc2ccccc12 | % | 0 |
| O=c1n(Cc2ccc(Br)cc2)nnn1-c1ccc(Cl)cc1 | % | 0 |
| COc1cccc(Cn2nnn(-c3ccc(Cl)cc3)c2=O)c1 | % | 0 |
| Cc1ccccc1Cn1nnn(-c2ccc(Cl)cc2)c1=O | % | 0 |
| O=c1n(Cc2cccc(F)c2)nnn1-c1ccc(Cl)cc1 | % | 0 |
| CCCSc1nnc(Cn2nnn(-c3ccc(Cl)cc3)c2=O)s1 | % | 80 |
| CCCCSc1nnc(Cn2nnn(-c3ccc(Cl)cc3)c2=O)s1 | % | 30 |
| Cc1ccc(Cn2nnn(-c3ccc(Cl)cc3)c2=O)cc1 | % | 0 |
| CO/C=C\C(C(=O)OC)c1ccccc1CSc1nnc(Cn2nnn(-c3ccc(Cl)cc3)c2=O)s1 (centres undefined) | % | 0 |
| CCOC(=O)C(C)Sc1nnc(Cn2nnn(-c3ccc(Cl)cc3)c2=O)o1 (centres undefined) | % | 0 |
| CCOC(=O)CSc1nnc(Cn2nnn(-c3ccc(Cl)cc3)c2=O)s1 | % | 0 |
| O=c1n(Cc2nnc(SCc3ccccc3)s2)nnn1-c1ccc(Cl)cc1 | % | 70 |
| CCSc1nnc(Cn2nnn(-c3ccc(Cl)cc3)c2=O)s1 | % | 70 |
| O=c1n(Cc2nnc(SCc3ccccc3F)s2)nnn1-c1ccc(Cl)cc1 | % | 70 |
| O=c1n(Cc2cccc(Cl)c2)nnn1-c1ccc(Cl)cc1 | % | 0 |
| O=c1n(Cc2ccccc2F)nnn1-c1ccc(Cl)cc1 | % | 0 |
| CCOC(=O)Cn1nnn(-c2ccc(Cl)cc2)c1=O | % | 0 |
| CCOC(=O)C(C)Sc1nnc(Cn2nnn(-c3ccc(Cl)cc3)c2=O)s1 (centres undefined) | % | 40 |
| O=c1n(Cc2nnc(SCc3cccc(Cl)c3)s2)nnn1-c1ccc(Cl)cc1 | % | 0 |
| O=c1n(Cc2nnc(SCc3cccc(F)c3)s2)nnn1-c1ccc(Cl)cc1 | % | 70 |
| O=c1c(Cn2nnn(-c3ccccc3Cl)c2=O)coc2ccccc12 | % | 0 |
| CCOC(=O)CSc1nnc(Cn2nnn(-c3ccc(Cl)cc3)c2=O)o1 | % | 0 |
| Cc1cccc(Cn2nnn(-c3ccc(Cl)cc3)c2=O)c1 | % | 0 |
| CCCCCCSc1nnc(Cn2nnn(-c3ccc(Cl)cc3)c2=O)s1 | % | 0 |
| CCCCCCCCSc1nnc(Cn2nnn(-c3ccc(Cl)cc3)c2=O)s1 | % | 0 |
| C=CCSc1nnc(Cn2nnn(-c3ccc(Cl)cc3)c2=O)s1 | % | 70 |
| C=CCn1nnn(-c2ccc(Cl)cc2)c1=O | % | 50 |
| CCCCCCCCSc1nnc(Cn2nnn(-c3ccc(Cl)cc3)c2=O)o1 | % | 0 |
| Cc1ccccc1CSc1nnc(Cn2nnn(-c3ccc(Cl)cc3)c2=O)s1 | % | 70 |

====

test system: Cucumis sativus; assay: Inhibition of root growth of Cucumis sativus at 100 mg/L; type: functional

| Molecule | Tgt | inhibition at 100 µg/mL [%] |
| --- | --- | --- |
| Cc1ccc(Cn2nnn(-c3ccc(Cl)cc3)c2=O)cc1 | Cucumis sativus | 0 |
| COc1cc(-n2nnn(C)c2=O)c(Cl)cc1Cl | Cucumis sativus | 60 |
| C=CCSc1nnc(Cn2nnn(-c3ccc(Cl)cc3)c2=O)o1 | Cucumis sativus | 60 |
| CCOC(=O)Cn1nnn(-c2ccc(Cl)cc2)c1=O | Cucumis sativus | 0 |
| CCOC(=O)C(C)Sc1nnc(Cn2nnn(-c3ccc(Cl)cc3)c2=O)o1 (configuration not stated) | Cucumis sativus | 0 |
| O=c1n(Cc2cccc(Cl)c2)nnn1-c1ccc(Cl)cc1 | Cucumis sativus | 0 |
| CSc1nnc(Cn2nnn(-c3ccc(Cl)cc3)c2=O)s1 | Cucumis sativus | 40 |
| CCOC(=O)CSc1nnc(Cn2nnn(-c3ccc(Cl)cc3)c2=O)o1 | Cucumis sativus | 0 |
| CCCCCCSc1nnc(Cn2nnn(-c3ccc(Cl)cc3)c2=O)s1 | Cucumis sativus | 0 |
| CCOC(=O)C(C)n1nnn(-c2ccc(Cl)cc2)c1=O (configuration not stated) | Cucumis sativus | 0 |
| O=c1n(Cc2nnc(SCc3cccc(F)c3)s2)nnn1-c1ccc(Cl)cc1 | Cucumis sativus | 30 |
| O=c1n(Cc2ccc(Br)cc2)nnn1-c1ccc(Cl)cc1 | Cucumis sativus | 0 |
| CCCCSc1nnc(Cn2nnn(-c3ccc(Cl)cc3)c2=O)s1 | Cucumis sativus | 0 |
| CCOC(=O)C(C)Sc1nnc(Cn2nnn(-c3ccc(Cl)cc3)c2=O)s1 (configuration not stated) | Cucumis sativus | 60 |
| CO/C=C\C(C(=O)OC)c1ccccc1CSc1nnc(Cn2nnn(-c3ccc(Cl)cc3)c2=O)s1 (configuration not stated) | Cucumis sativus | 30 |
| O=c1n(Cc2nnc(SCc3cccc(Cl)c3)s2)nnn1-c1ccc(Cl)cc1 | Cucumis sativus | 0 |
| Cc1ccccc1Cn1nnn(-c2ccc(Cl)cc2)c1=O | Cucumis sativus | 0 |
| CCCCCCCCSc1nnc(Cn2nnn(-c3ccc(Cl)cc3)c2=O)o1 | Cucumis sativus | 0 |
| C=CCn1nnn(-c2ccccc2Cl)c1=O | Cucumis sativus | 0 |
| O=c1c(Cn2nnn(-c3ccc(Cl)cc3)c2=O)coc2ccccc12 | Cucumis sativus | 0 |
| C=CCSc1nnc(Cn2nnn(-c3ccc(Cl)cc3)c2=O)s1 | Cucumis sativus | 0 |
| O=c1n(Cc2nnc(SCc3ccccc3F)s2)nnn1-c1ccc(Cl)cc1 | Cucumis sativus | 70 |

====

test system: Brassica rapa subsp. oleifera; assay: Inhibition of root growth of Brassica campestris at 100 mg/L; type: functional

| Compound | Tgt | inhibition at 100 µg/mL [%] |
| --- | --- | --- |
| CCOC(=O)CSc1nnc(Cn2nnn(-c3ccc(Cl)cc3)c2=O)o1 | Brassica rapa subsp. oleifera | 50 |
| CCOC(=O)C(C)Sc1nnc(Cn2nnn(-c3ccc(Cl)cc3)c2=O)o1 (stereo unspecified) | Brassica rapa subsp. oleifera | 80 |
| CCOC(=O)C(C)n1nnn(-c2ccc(Cl)cc2)c1=O (stereo unspecified) | Brassica rapa subsp. oleifera | 0 |
| Cc1ccccc1Cn1nnn(-c2ccc(Cl)cc2)c1=O | Brassica rapa subsp. oleifera | 0 |
| C=CCn1nnn(-c2ccccc2Cl)c1=O | Brassica rapa subsp. oleifera | 0 |
| O=c1n(Cc2cccc(F)c2)nnn1-c1ccc(Cl)cc1 | Brassica rapa subsp. oleifera | 0 |

====

tested on: Brassica rapa subsp. oleifera; test: Inhibition of root growth of Brassica campestris at 100 mg/L; type: functional

| Mol | inhibition at 100 µg/mL |
| --- | --- |
| Cc1ccccc1CSc1nnc(Cn2nnn(-c3ccc(Cl)cc3)c2=O)s1 | 50% |
| CCCSc1nnc(Cn2nnn(-c3ccc(Cl)cc3)c2=O)s1 | 70% |
| COc1cc(-n2nnn(C)c2=O)c(Cl)cc1Cl | 0% |
| CCOC(=O)CSc1nnc(Cn2nnn(-c3ccc(Cl)cc3)c2=O)s1 | 70% |
| CSc1nnc(Cn2nnn(-c3ccc(Cl)cc3)c2=O)s1 | 0% |
| O=c1c(Cn2nnn(-c3ccc(Cl)cc3)c2=O)coc2ccccc12 | 0% |

====

system: Brassica rapa subsp. oleifera; assay: Inhibition of root growth of Brassica campestris at 100 mg/L; assay type: functional
Each record here notes measured inhibition at 100 µg/mL.
Metric name: inhibition at 100 µg/mL (%)

| Compound | Tgt | U | Value reported |
| --- | --- | --- | --- |
| CO/C=C\C(C(=O)OC)c1ccccc1CSc1nnc(Cn2nnn(-c3ccc(Cl)cc3)c2=O)s1 (stereo unspecified) | Brassica rapa subsp. oleifera | % | 30 |
| O=c1n(Cc2nnc(SCc3ccccc3F)s2)nnn1-c1ccc(Cl)cc1 | Brassica rapa subsp. oleifera | % | 80 |
| O=c1n(Cc2ccccc2F)nnn1-c1ccc(Cl)cc1 | Brassica rapa subsp. oleifera | % | 0 |
| COc1cccc(Cn2nnn(-c3ccc(Cl)cc3)c2=O)c1 | Brassica rapa subsp. oleifera | % | 0 |
| O=c1n(Cc2nnc(SCc3ccccc3)s2)nnn1-c1ccc(Cl)cc1 | Brassica rapa subsp. oleifera | % | 60 |
| CCCCCCSc1nnc(Cn2nnn(-c3ccc(Cl)cc3)c2=O)s1 | Brassica rapa subsp. oleifera | % | 70 |
| CCOC(=O)C(C)Sc1nnc(Cn2nnn(-c3ccc(Cl)cc3)c2=O)s1 (stereo unspecified) | Brassica rapa subsp. oleifera | % | 85 |
| O=c1n(Cc2ccc(Br)cc2)nnn1-c1ccc(Cl)cc1 | Brassica rapa subsp. oleifera | % | 0 |
| C=CCn1nnn(-c2ccc(Cl)cc2)c1=O | Brassica rapa subsp. oleifera | % | 50 |
| O=c1n(Cc2nnc(SCc3cccc(Cl)c3)s2)nnn1-c1ccc(Cl)cc1 | Brassica rapa subsp. oleifera | % | 0 |
| CCCCCCCCSc1nnc(Cn2nnn(-c3ccc(Cl)cc3)c2=O)o1 | Brassica rapa subsp. oleifera | % | 0 |
